Assign LogP [b] to each entry below.
# Protocol: Measurement of LogP values by HPLC on reversed phase columns (EEC directive 79/831 Annex V.A8)
# Type: physicochemical
Reply with just the number.

Data request: Hello, please tell me recorded LogP [b] for this one: Cc1cccc2c1N(C(=O)c1snc(N)c1Cl)CCC2
Data returned: 2.36

Data request: Hello, please tell me recorded LogP [b] for this one: COC(=O)CC(NC(=O)c1snc(Cl)c1Cl)C1CCCCC1 (stereo not shown)
Data returned: 3.95

Data request: Hello, please tell me recorded LogP [b] for this one: Nc1nsc(C(=O)N2CCc3cc(F)ccc3C2)c1Cl
Data returned: 2.05

Data request: Hello, please tell me recorded LogP [b] for this one: CC(C)OC(=O)c1snc(N)c1Cl
Data returned: 2.16

Data request: Hello, please tell me recorded LogP [b] for this one: COc1ccc(CNc2nsc(C(=O)OC(C)C)c2NCc2ccc(OC)cc2)cc1
Data returned: 4.51

Data request: Hello, please tell me recorded LogP [b] for this one: O=C(NC1CCc2ccccc21)c1snc(Cl)c1Cl (stereo not shown)
Data returned: 3.63

Data request: Hello, please tell me recorded LogP [b] for this one: CC1(C)C2CCC1(C)C(NC(=O)c1snc(Cl)c1Cl)C2 (stereo not shown) [E-II-022]
Data returned: 4.94

Data request: Hello, please tell me recorded LogP [b] for this one: CC1CCC(C(C)C)C(NC(=O)c2snc(Cl)c2Cl)C1 (stereo not shown)
Data returned: 5.64

Data request: Hello, please tell me recorded LogP [b] for this one: COc1ccc(CNc2nsc(C(=O)N3CCCc4cc(C)ccc43)c2Cl)cc1
Data returned: 4.15

Data request: Hello, please tell me recorded LogP [b] for this one: Nc1nsc(C(=O)N2CCc3ccccc32)c1Cl
Data returned: 2.03

* * *

# Protocol: Measurement of LogP values by HPLC on reversed phase columns (EEC directive 79/831 Annex V.A8)
# Type: physicochemical
Marks after values point to notes of the source that are not given here.
Value type: LogP

Data request: Hello, please tell me recorded LogP for this one: Cc1cc(F)ccc1CNC(=O)c1snc(NC(=O)C(F)(F)F)c1Cl
Data returned: 2.72[a]

Data request: Hello, please tell me recorded LogP for this one: O=C(NC1CCCC1c1ccccc1)c1snc(NC(=O)C2CC2)c1Cl (stereo not drawn)
Data returned: 2.86[a]

Data request: Hello, please tell me recorded LogP for this one: Cc1c(N)nsc1C(=O)NCc1ccccc1C(F)F
Data returned: 1.74[a]

Data request: Hello, please tell me recorded LogP for this one: Cc1ccnc(CNC(=O)c2snc(N)c2Cl)n1
Data returned: 0.83[a]

Data request: Hello, please tell me recorded LogP for this one: COc1ccc(CNc2nsc(C(=O)N[C@H](C)C3CCCCC3)c2Cl)cc1
Data returned: 4.56[a]

Data request: Hello, please tell me recorded LogP for this one: COc1ccc(CNc2nsc(C(=O)NC3CCC3)c2Cl)cc1
Data returned: 3.15[a]

Data request: Hello, please tell me recorded LogP for this one: Nc1nsc(C(=O)NCc2cccc(F)c2F)c1Cl
Data returned: 1.91[a]

Data request: Hello, please tell me recorded LogP for this one: C#Cc1c(NC(=O)C(F)(F)F)nsc1C(=O)NCC1CCCCC1
Data returned: 3.05[a]

Data request: Hello, please tell me recorded LogP for this one: COc1ccc(CNc2nsc(C(=O)NC3CCCCC3c3ccccc3)c2Cl)cc1 (stereo not drawn)
Data returned: 4.69[a]

Data request: Hello, please tell me recorded LogP for this one: O=C(NCCc1ncc(C(F)(F)F)cc1Cl)c1cc(N(Cc2ccccc2)Cc2ccccc2)ns1
Data returned: 5.03[a]

Data request: Hello, please tell me recorded LogP for this one: COc1ccc(CNc2nsc(C(=O)N(Cc3c(Cl)cccc3Cl)C3CC3)c2Cl)cc1
Data returned: 4.80[a]

Data request: Hello, please tell me recorded LogP for this one: COc1ccc(CNc2nsc(C(=O)NCc3cnn(CC(F)(F)F)c3)c2Cl)cc1
Data returned: 2.84[a]

Data request: Hello, please tell me recorded LogP for this one: Nc1nsc(C(=O)N(Cc2ccc(Cl)cc2Cl)C2CCC2)c1Cl
Data returned: 3.85[a]

Data request: Hello, please tell me recorded LogP for this one: Nc1cc(C(=O)NCc2cccc(Cl)c2Cl)sn1
Data returned: 2.02[a]

Data request: Hello, please tell me recorded LogP for this one: O=CCCNc1nsc(C(=O)NCC2CCCCC2)c1Cl
Data returned: 2.83[a]

Data request: Hello, please tell me recorded LogP for this one: O=C(Nc1ccc(Cl)cc1Cl)c1cc(N(Cc2ccccc2)Cc2ccccc2)ns1
Data returned: 5.74[a]

Data request: Hello, please tell me recorded LogP for this one: C[C@H](NC(=S)c1snc(NC2CC2)c1Cl)C1CCCCC1
Data returned: 4.84[a]

Data request: Hello, please tell me recorded LogP for this one: COc1ccc(CNC(=O)c2cc(N)ns2)c(F)c1
Data returned: 1.48[a]

Data request: Hello, please tell me recorded LogP for this one: Nc1nsc(C(=O)NCc2ccc(C3CC3)cc2)c1C1CC1
Data returned: 2.48[a]

Data request: Hello, please tell me recorded LogP for this one: COc1ccc(CNc2nsc(C(=O)N(c3ccc(F)cc3)C3CC3)c2Cl)cc1
Data returned: 3.85[a]

Data request: Hello, please tell me recorded LogP for this one: Nc1cc(C(=O)NCc2cccc(Cl)c2)sn1
Data returned: 1.78[a]

Data request: Hello, please tell me recorded LogP for this one: COc1ccc(CNc2nsc(C(=O)N(Cc3cc(C)cc(C)c3)C3CC3)c2Cl)cc1
Data returned: 4.90[a]

Data request: Hello, please tell me recorded LogP for this one: COc1ccc(CNc2nsc(C(=O)NCc3ccc(OC(F)F)cc3)c2Cl)cc1
Data returned: 3.63[a]

Data request: Hello, please tell me recorded LogP for this one: O=C(c1cc(N(Cc2ccccc2)Cc2ccccc2)ns1)N(Cc1cc(Cl)ccc1Br)C1CC1
Data returned: 6.11[a]

Data request: Hello, please tell me recorded LogP for this one: O=C(NCc1ncc(C(F)(F)F)cc1Cl)c1snc(N(Cc2ccccc2)Cc2ccccc2)c1Br
Data returned: 6.06[a]

Data request: Hello, please tell me recorded LogP for this one: COc1ccc(CN(C(=O)OC(C)(C)C)c2nsc(C(=O)N(C)OC)c2Cl)cc1
Data returned: 3.75[a]

Data request: Hello, please tell me recorded LogP for this one: C[C@H]1CCCC[C@H]1NC(=O)c1snc(N)c1F (relative stereo)
Data returned: 2.11[a]

Data request: Hello, please tell me recorded LogP for this one: O=C(NCc1ccc(F)cc1F)c1snc(NC(=O)C(F)(F)F)c1Cl
Data returned: 2.64[a]

Data request: Hello, please tell me recorded LogP for this one: COc1ccc(CNc2nsc(C(=O)NCCC3CCOC3)c2Cl)cc1 (stereo not drawn)
Data returned: 2.59[a]

Data request: Hello, please tell me recorded LogP for this one: COc1ccc(CNc2nsc(C(=O)NCc3cccc(OC)n3)c2Cl)cc1
Data returned: 3.41[a]

Data request: Hello, please tell me recorded LogP for this one: CCc1ccccc1C(C)N(C(=O)c1snc(NCc2ccc(OC)cc2)c1Cl)C1CC1 (stereo not drawn)
Data returned: 5.14[a]

Data request: Hello, please tell me recorded LogP for this one: COc1ccc(CNc2nsc(C(=O)NCC3(C)CCC(C)CC3)c2Cl)cc1 (stereo not drawn)
Data returned: 4.84[a]

Data request: Hello, please tell me recorded LogP for this one: COc1ccc(CNc2nsc(C(=O)N(C3CC3)C(C)c3cc(Cl)cc(Cl)c3)c2Cl)cc1 (stereo not drawn)
Data returned: 5.36[a]

Data request: Hello, please tell me recorded LogP for this one: O=C(NCc1ccccc1F)c1cc(N(Cc2ccccc2)Cc2ccccc2)ns1
Data returned: 4.38[a]

Data request: Hello, please tell me recorded LogP for this one: Nc1nsc(C(=O)NCc2ccc(F)cc2C(F)(F)F)c1Cl
Data returned: 2.61[a]

Data request: Hello, please tell me recorded LogP for this one: CCc1ccc(CNC(=O)c2snc(NCc3ccc(OC)cc3)c2Cl)nc1
Data returned: 2.34[a]

Data request: Hello, please tell me recorded LogP for this one: COc1ccc(CNc2nsc(C(=O)NCc3cncc(OC)c3)c2Cl)cc1
Data returned: 1.89[a]

Data request: Hello, please tell me recorded LogP for this one: COc1ccc(CNc2nsc(C(=O)Nc3cc(F)cc(F)c3)c2Cl)cc1
Data returned: 4.15[a]

Data request: Hello, please tell me recorded LogP for this one: COc1ccc(CNc2nsc(C(=O)NC(C)c3ccno3)c2Cl)cc1 (stereo not drawn)
Data returned: 2.73[a]
